- procedureSummary: Cell Viability - LYMP2-010 (AID 981);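 note: cells exposed to compound for 24 hours at 37 °C; nearly all actives have a fitted effect of over 55% in size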
- studyConditions: LYMP2-010 lymphoblastoid cell viability, qHTS; series mostly up to 92.2 µM
- Text: NIH Chemical Genomics Center [NCGC] NIH Molecular Libraries Screening Centers Network [MLSCN] National Institutes of Environmental Health Sciences [NIEHS] National Toxicology Program [NTP] We have developed a 1536-well cell-based assay for quantitative high throughput screening (qHTS) against a number of cell lines to determine in vitro cytotoxicity of small molecules. […] 8. Detection; Luminescence; Viewlux plate reader […]
Results filed as inconclusive are left out. Calls of active or inactive are those of the source. Calls come from the whole dose curve; as a rule, active = well fitted cell-killing curve with a large enough effect; inconclusive = small, poorly fitted or top-dose-only effect; inactive = flat fitted curve, though single readings scatter.
Possible outcomes: YES for active, NO for inactive

> print(dat)
           structurenotation  classassignment
1        Oc1cc(Cl)c(Cl)cc1Cl               NO
2                   NNC(N)=O               NO
3  CC(C)Nc1ccc(Nc2ccccc2)cc1              YES
4                   O=C1CCO1               NO
